Data credit: paper PMC11482939

System: UM cell lines (MP41, MP38, MP46)
Assay: Concentration-response cell viability, UM cell lines overall
Format: cell-based, human
Settings: Homo sapiens, 72 h, read-out: UM IC50
pIC50: −log10 of the molar value.
Parameter: pIC50

Enquiry: State pIC50 (UM cell lines (MP41, MP38, MP46)) of CC[C@@]1(O)C(=O)OCc2c1cc1n(c2=O)Cc2cc3ccccc3nc2-1 [(S)-(+)-Camptothecin] .
Return: ~6.48

###

Tested on: WS1 fibroblast cell line
Assay: Viability assay on non-cancerous fibroblasts
Assay type: cell-based
Settings: Fibroblast, read-out: fibroblast IC50
pIC50: −log10 of the molar value.
Parameter: pIC50

Use the examples below as a reference point.
- Compound: "CCS(=O)(=O)Nc1ccc(Oc2ccc(F)cc2F)c(-c2cn(C)c(=O)c3[nH]ccc23)c1"
  Parameter: "pIC50"
  Result: "< 5.00"
- Compound: "COc1ccc(-c2nc(N3CCOCC3)c3sc(CN(C)c4ncc(C(=O)NO)cn4)cc3n2)cn1 [Fimepinostat]"
  Parameter: "pIC50"
  Result: "~7.26"
- Compound: "Cn1cc(CNCC2CCN(c3ncc(C(=O)NO)cn3)CC2)c2ccccc21"
  Parameter: "pIC50"
  Result: "~6.93"
- Compound: "CC(C)C[C@H](NC(=O)[C@H](Cc1ccccc1)NC(=O)c1cnccn1)B(O)O"
  Parameter: "pIC50"
  Result: "~7.24"

Enquiry: Return reported pIC50. Input compound: Cc1[nH]c2ccccc2c1CCNCc1ccc(/C=C/C(=O)NO)cc1
Return: ~6.91
